system: foxtail, giant; assay: Test C pre-/postemergence herbicide test; type: in vivo, Setaria faberii; conditions: Postemergence, 125 g ai/ha; scale 0 to 100 (0 no effect, 100 complete control)
endpointName: Plant response rating, Foxtail, Giant
Answer using only a numeral; do not append any unit.

Qu. State, in one line, measured Plant response rating, Foxtail, Giant of O=C1NCC(c2cccc(C(F)(F)F)c2)C1C(=O)Nc1ccc(F)cc1F (racemic) [Compound 207]
Ans. 65

Qu. // fetch Plant response rating, Foxtail, Giant given entry O=C1NCC(c2cc(F)cc(F)c2)C1C(=O)Nc1ccc(F)cc1F (racemic) [Compound 278]
Ans. 40

Qu. Return value of Plant response rating, Foxtail, Giant for input O=C1NCC(c2cc(F)c(F)c(F)c2)C1C(=O)Nc1ccccc1F (racemic) [Compound 34] , no commentary.
Ans. 5

Qu. Name the recorded Plant response rating, Foxtail, Giant of the compound listed here: O=C1NCC(c2cccc(Br)c2)C1C(=O)Nc1cccc(F)c1F (stereo not shown) [Compound 309]
Ans. 40

Taken from patent US10294202B2.
